assay: Solubility of oxime ester compound in solvent; assay type: physicochemical; conditions: solvent CHN: cyclohexanone (footnote)
Solubility CHN values, listed per item
Please respond with the number in % and leave the unit unwritten.

> print(dat)
                                   molecule  val
1  CCCCCCCCCCCCCCn1c2ccc(/C(C)=N/OC(C)=O)cc2c2cc([N+](=O)[O-])ccc21  5.0

# Solubility CHN (molecule: `CCn1c2ccc(/C(C)=N/OC(C)=O)cc2c2cc([N+](=O)[O-])ccc21` ) is 0.80

# Solubility CHN (molecule: CCCCC(CC)Cn1c2ccc(/C(=N/OC(C)=O)c3ccc(C(C)(C)C)cc3)cc2c2cc([N+](=O)[O-])ccc21 (centres unmarked) ) is 24

# Solubility CHN (molecule: CCCCC(CC)Cn1c2ccc(/C(=N/OC(C)=O)c3ccc(F)cc3C)cc2c2cc([N+](=O)[O-])ccc21 (centres unmarked) ) is 7.6

# Solubility CHN (molecule: `CCn1c2ccc(/C(=N/OC(C)=O)c3ccc(OC(C)C)cc3OC(C)C)cc2c2cc([N+](=O)[O-])ccc21` ) is 12
